For each entry below, report its pEC50 value.
Test system: ABCG2 over-expressing Ig-MXP3 cells
Assay: Chemoreversal assay: potentiation of mitoxantrone (MTX) killing
Assay type: cell-based
Settings: Ig-MXP3 cells, constant 30 nM MTX, varied inhibitor dose; read-out: CR50 ABCG2
Answers are plain numbers, as −log10 of the molar value.

These solved cases illustrate the format of a correct answer.
>>> print(df.to_string())
                           smiles_structure  test_value
0  O=C(c1ccncc1)N1CCN(c2cc(-c3ccccc3)nc3cc(-c4cccc(Cl)c4)nn23)CC1        6.82
1  COc1cccc(-c2cc(N3CCN(C(=O)c4ccoc4)CC3)n3nc(-c4ccccc4)cc3n2)c1        6.17
2  Cc1nc2cc(-c3cccc(Cl)c3)nn2c(N2CCN(C(=O)c3ccco3)CC2)c1C        6.77
3  COc1cccc(C(=O)N2CCN(c3cc(-c4ccccc4)nc4cc(-c5cccc(Cl)c5)nn34)CC2)c1        6.68
4  O=C(c1ccoc1)N1CCN(c2cc(-c3ccco3)nc3cc(-c4ccco4)nn23)CC1        5.92
5  CC(=O)N1CCN(c2cc(-c3ccco3)nc3cc(-c4ccccc4)nn23)CC1        6.03

# context switch: different compound, same pEC50
Exercise: # lookup: ABCG2 over-expressing Ig-MXP3 cells pEC50, key = `CC(=O)N1CCN(c2cc(-c3ccco3)nc3cc(-c4cccc(Cl)c4)nn23)CC1`
Solution: 6.24
